molecular target: Acetylcholinesterase (Homo sapiens, UniProt P22303)
Sequence (P22303 whole entry): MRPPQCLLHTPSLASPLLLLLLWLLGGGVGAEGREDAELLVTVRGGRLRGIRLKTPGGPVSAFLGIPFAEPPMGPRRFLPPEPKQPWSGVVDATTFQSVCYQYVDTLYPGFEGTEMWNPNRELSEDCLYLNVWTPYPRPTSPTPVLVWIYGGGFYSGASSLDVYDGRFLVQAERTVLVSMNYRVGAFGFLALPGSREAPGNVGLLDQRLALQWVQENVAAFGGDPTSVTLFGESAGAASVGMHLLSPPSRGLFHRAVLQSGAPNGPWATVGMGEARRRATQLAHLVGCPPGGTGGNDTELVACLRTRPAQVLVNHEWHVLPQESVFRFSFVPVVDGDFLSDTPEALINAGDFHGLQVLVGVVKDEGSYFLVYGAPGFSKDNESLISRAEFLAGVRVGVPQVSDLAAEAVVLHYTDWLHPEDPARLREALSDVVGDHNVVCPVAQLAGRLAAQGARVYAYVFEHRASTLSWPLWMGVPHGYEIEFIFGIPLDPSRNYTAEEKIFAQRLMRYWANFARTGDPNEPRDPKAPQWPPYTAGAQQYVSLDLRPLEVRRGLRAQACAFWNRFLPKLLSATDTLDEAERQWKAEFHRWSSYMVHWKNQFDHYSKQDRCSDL
MEASUREMENT KIND: pIC50
To interpret pIC50, take it as minus log10 of a concentration measured in moles per litre.

Sample records with pIC50:
N#CC1=C(N)N(Cc2ccccc2)C(NCc2ccccc2)=C([N+](=O)[O-])C12C(=O)c1cccc3cccc2c13 (stereo not drawn) = 5.22
CC1(C)CNC2=C([N+](=O)[O-])C3(C(=O)c4cccc5cccc3c45)C(C#N)=C(N)N2C1 (stereo not drawn) = 5.11

Jot down pIC50 (Acetylcholinesterase (Homo sapiens, UniProt P22303)) of N#CC1=C(N)N(Cc2ccccc2)C(NCc2ccccc2)=C([N+](=O)[O-])C12C(=O)Nc1ccc([N+](=O)[O-])cc12 (stereo not drawn) . 5.47

Recall the reported pIC50 of N#CC1=C(N)N2CCNC2=C([N+](=O)[O-])C12C(=O)c1ccc(Br)c3c(Br)ccc2c13 (stereo not drawn) on Acetylcholinesterase (Homo sapiens, UniProt P22303) and write it down. 5.20

Supply pIC50 measured with Acetylcholinesterase (Homo sapiens, UniProt P22303) for N#CC1=C(N)N2CCCNC2=C([N+](=O)[O-])C12C(=O)Nc1ccc(F)cc12 (stereo not drawn) . 6.38

Report pIC50 under test system Acetylcholinesterase (Homo sapiens, UniProt P22303) for N#CC1=C(N)N2CCNC2=C([N+](=O)[O-])C12C(=O)Nc1ccccc12 (stereo not drawn) . 5.31

Look up and report measured pIC50 (Acetylcholinesterase (Homo sapiens, UniProt P22303)) for the following compound: N#CC1=C(N)N(Cc2ccccc2)C(NCc2ccccc2)=C([N+](=O)[O-])C12C(=O)Nc1ccccc12 (stereo not drawn) 5.40

Report pIC50 under test system Acetylcholinesterase (Homo sapiens, UniProt P22303) for Cc1ccc2c(c1)C1(C(=O)N2)C(C#N)=C(N)N(Cc2ccccc2)C(NCc2ccccc2)=C1[N+](=O)[O-] (stereo not drawn) . 5.43

* * *

target: Cholinesterases; ACHE & BCHE (Homo sapiens) (UniProt P06276+P22303); experiment: Selectivity ratio of IC50 for AChE (unknown origin) to IC50 for BChE (unknown origin) by Ellman's kinetic method
Sequence (P06276 whole entry, looked up, one chain of several): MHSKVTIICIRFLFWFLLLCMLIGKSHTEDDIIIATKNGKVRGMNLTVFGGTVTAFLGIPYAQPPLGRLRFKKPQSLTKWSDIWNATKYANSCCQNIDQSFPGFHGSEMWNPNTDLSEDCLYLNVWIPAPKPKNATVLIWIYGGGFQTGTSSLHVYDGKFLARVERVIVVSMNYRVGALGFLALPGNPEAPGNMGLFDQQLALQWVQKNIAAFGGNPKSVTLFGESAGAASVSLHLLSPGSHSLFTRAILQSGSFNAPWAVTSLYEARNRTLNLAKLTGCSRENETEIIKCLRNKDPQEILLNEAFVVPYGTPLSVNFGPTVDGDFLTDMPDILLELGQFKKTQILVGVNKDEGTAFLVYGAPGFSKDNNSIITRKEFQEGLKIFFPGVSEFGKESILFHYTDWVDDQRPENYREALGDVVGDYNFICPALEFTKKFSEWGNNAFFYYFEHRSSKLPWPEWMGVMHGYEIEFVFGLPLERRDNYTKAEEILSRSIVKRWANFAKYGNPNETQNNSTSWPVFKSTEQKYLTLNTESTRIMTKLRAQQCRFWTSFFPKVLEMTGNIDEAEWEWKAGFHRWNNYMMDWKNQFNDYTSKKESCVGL
Rule: Ratio IC50 below 0.2 gives Y. Equal to or above 0.2 gives N.

Cc1ccc2c(c1)C1(C(=O)N2)C(C#N)=C(N)N2CC(C)(C)CNC2=C1[N+](=O)[O-] (stereo not drawn) = Y
CC1(C)CNC2=C([N+](=O)[O-])C3(C(=O)Nc4ccccc43)C(C#N)=C(N)N2C1 (stereo not drawn) = Y
N#CC1=C(N)N2CCNC2=C([N+](=O)[O-])C12C(=O)Nc1ccccc12 (stereo not drawn) = N

A record lists N#CC1=C(N)N(Cc2ccccc2)C(NCc2ccccc2)=C([N+](=O)[O-])C12C(=O)Nc1ccccc12 (stereo not drawn) . Is its Ratio IC50 below 0.2? N

Does this compound meet the criterion Ratio IC50 < 0.2? N#CC1=C(N)N(Cc2ccccc2)C(NCc2ccccc2)=C([N+](=O)[O-])C12C(=O)c1ccc(Br)c3c(Br)ccc2c13 (stereo not drawn) N

In the record for Cc1ccc2c(c1)C1(C(=O)N2)C(C#N)=C(N)N(Cc2ccccc2)C(NCc2ccccc2)=C1[N+](=O)[O-] (stereo not drawn) , is Ratio IC50 less than 0.2? N

Dear colleague, could you confirm whether Ratio IC50 of N#CC1=C(N)N2CCNC2=C([N+](=O)[O-])C12C(=O)c1cccc3cccc2c13 (stereo not drawn) falls below 0.2? Thanks. N

A record lists N#CC1=C(N)N(Cc2ccccc2)C(NCc2ccccc2)=C([N+](=O)[O-])C12C(=O)Nc1ccc(F)cc12 (stereo not drawn) . Is its Ratio IC50 below 0.2? N
